Source of measurements: patent US20240408169A1

- Measurement Target: CyclinA2/CDK2 (Homo sapiens)
- Construct: purchased CRELUX Protein Services
- Protocol Details: Fluorescence Polarization (FP) competitive binding assay, Cyclin A2/Cdk2
*1 amine or outer side, *2 acyl side, *3 side chain or, on linkers, in order; H or OH if unused. Where a SMILES comes first, the peptide text is derived from it. Bridges are numbered along the chain shown (N, C = ends). [ ]: non-standard residue; d: D form. The star is where a group is joined. X123 = CN([C@@H](Cc1cc(Cl)ccc1-c1ccc[nH]c1=O)C(=O)[*:2])[*:1]; NMehhhLys(Me) = CN([C@@H](CCCCCCCN(C)[*:3])C(=O)[*:2])[*:1]; cBuCO(3,3-F2-1-CF3) = O=C(C1(C(F)(F)F)CC(F)(F)C1)*; Pro(trans-4-F) = O=C(O)[C@@H]1C[C@@H](F)CN1; Gly(cPr) = N[C@H](C(=O)O)C1CC1
Measurement Label: IC50 (µM)

CC(C)C[C@@H]1NC(=O)[C@@H](N(C)C(=O)[C@@H](NC(=O)[C@@H]2C[C@@H](F)CN2C(=O)C2(C(F)(F)F)CC(F)(F)C2)C2CC2)CCCCCCCN(C)C(=O)[C@H](Cc2cc(Cl)ccc2-c2ccc[nH]c2=O)N(C)C1=O [Example 208] ({cBuCO(3,3-F2-1-CF3)}-[Pro(trans-4-F)][Gly(cPr)][NMehhhLys(Me)]L[X123]; lactam 3-C) ... 0.21
CCN(C(=O)[C@@H](NC(=O)[C@@H]1C[C@@H](F)CN1C(=O)C1(C(F)(F)F)CCC1)C1CC1)[C@H]1CCCCCCCN(C)C(=O)[C@H](Cc2cc(Cl)cnc2OC2CC2)N(C)C(=O)[C@H](CC(C)C)NC1=O [Example 220] ... 0.09
CCN(C(=O)[C@@H](NC(=O)[C@@H]1C[C@@H](F)CN1C(=O)[C@@]1(C(F)(F)F)CCCCO1)C1CC1)[C@H]1CCCCCCCN(C)C(=O)[C@H](Cc2cc(Cl)cnc2OC2CC2)N(C)C(=O)[C@H](CC(C)C)NC1=O [Example 221] ... 0.06

###

- Measurement Target: CyclinA2/CDK2 (Homo sapiens, UniProt P20248)
- Construct: purchased CRELUX Protein Services
- Protocol Details: Fluorescence Polarization (FP) competitive binding assay, Cyclin A2/Cdk2;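 further: plates equilibrated two hours at room temperature before polarization reading, IC50 fitted from eight-concentration compound titration curves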
- Condition Description: 8 nM Cyclin A2/Cdk2, 2 nM FAM probe; average of 2-3 independent experiments; read-out: Cyclin A FP IC50
pIC50: −log10 of the molar value. *1 amine or outer side, *2 acyl side, *3 side chain or, on linkers, in order; H or OH if unused. Where a SMILES comes first, the peptide text is derived from it. Bridges are numbered along the chain shown (N, C = ends). [ ]: non-standard residue; d: D form. The star is where a group is joined. X115 = CN([C@@H](Cc1cc(Cl)ccc1-c1ccc(N2CCNCC2)cc1)C(=O)[*:2])[*:1]; NMehhhLys(Me) = CN([C@@H](CCCCCCCN(C)[*:3])C(=O)[*:2])[*:1]; X109 = CN([C@@H](Cc1cc(Cl)ccc1-c1ccncc1)C(=O)[*:2])[*:1]; cBuCO(3,3-F2-1-CF3) = O=C(C1(C(F)(F)F)CC(F)(F)C1)*; Pro(trans-4-F) = O=C(O)[C@@H]1C[C@@H](F)CN1; Gly(cPr) = N[C@H](C(=O)O)C1CC1
The entries below come with measured pIC50 values attached.
Measurement Label: pIC50

CC(C)C[C@@H]1NC(=O)[C@@H](N(C)C(=O)[C@@H](NC(=O)[C@@H]2C[C@@H](F)CN2C(=O)C2(C(F)(F)F)CCC2)C2CC2)C/C=C\CCCCN(C)C(=O)[C@H](Cc2cc(Cl)ccc2-c2cnn(C)c2)N(C)C1=O ... 7.70
CC(C)C[C@@H]1NC(=O)[C@@H](N(C)C(=O)[C@@H](NC(=O)[C@@H]2C[C@@H](F)CN2C(=O)C2(C(F)(F)F)CCC2)C2CC2)CC=CCCCCN(C)C(=O)[C@H](Cc2cc(F)ccc2-c2cnn(C)c2)N(C)C1=O ... 7.30
CC(C)C[C@@H]1NC(=O)[C@@H](N(C)C(=O)[C@@H](NC(=O)[C@@H]2C[C@@H](F)CN2C(=O)C2(C(F)(F)F)CCC2)C2CC2)CC=CCCCCNC(=O)[C@H](Cc2cc(F)cnc2OC2CC2)N(C)C1=O ... 6.15
CC(C)C[C@@H]1NC(=O)[C@@H](N(C)C(=O)[C@@H](NC(=O)[C@@H]2C[C@@H](F)CN2C(=O)C2(C(F)(F)F)CC(F)(F)C2)C2CC2)CCCCCCCN(C)C(=O)[C@H](Cc2cc(Cl)ccc2-c2ccc(N3CCNCC3)cc2)N(C)C1=O [Example 341] ({cBuCO(3,3-F2-1-CF3)}-[Pro(trans-4-F)][Gly(cPr)][NMehhhLys(Me)]L[X115]; lactam 3-C) ... 7.70
CC(C)C[C@@H]1NC(=O)[C@@H](N(C)C(=O)[C@@H](NC(=O)[C@@H]2C[C@@H](F)CN2C(=O)C2(C(F)(F)F)CC(F)(F)C2)C2CC2)CCCCCCCN(C)C(=O)[C@H](Cc2cc(Cl)ccc2-c2ccncc2)N(C)C1=O [Example 192] ({cBuCO(3,3-F2-1-CF3)}-[Pro(trans-4-F)][Gly(cPr)][NMehhhLys(Me)]L[X109]; lactam 3-C) ... 7.70
CC(C)C[C@@H]1NC(=O)[C@@H](N(C)C(=O)[C@@H](NC(=O)[C@@H]2C[C@@H](F)CN2C(=O)C2(C(F)(F)F)CC(F)(F)C2)C2CC2)CC=CCCCCNC(=O)[C@H](Cc2cc(Cl)ccc2C2=CCN(C(=O)C3CC3)CC2)N(C)C1=O ... 6.92
CC(C)C[C@@H]1NC(=O)[C@@H](N(C)C(=O)[C@@H](NC(=O)[C@@H]2C[C@@H](F)CN2C(=O)C2(C(F)(F)F)CC(F)(F)C2)C2CC2)CC=CCCCCNC(=O)[C@H](Cc2cc(Cl)ccc2C2=CCN(C)CC2)N(C)C1=O (single isomer, unassigned) [Example 56-P2] ... 6.23
